Tgt: Protein kinase C alpha type (Homo sapiens, UniProt P17252)
Test Summary: Inhibition of human recombinant PKCalpha
Measured Endpoint: IC50 (µM)

I = Cc1cc(N)c2ccccc2[n+]1CCCC/C=C\CCCC[n+]1c(C)cc(N)c2ccccc21
II = Cc1cc(N)c2ccccc2[n+]1CCCC/C=C/CCCC[n+]1c(C)cc(N)c2ccccc21
III = CCCC/C=C/CCCC[n+]1c(C)cc(N)c2ccccc21
Exam item: # ascending order, key=IC50 Record the ranking as a list of labels in the requested order.
Marked response: II, I, III
